Tested on: P388 leukemia ip, CD2F1 mice, survival T/C
Test: NCI In Vivo Anticancer Drug Screen. Data for tumor model P388 Leukemia (intraperitoneal) in CD2F1 (CDF1) mice
Conditions: endpoint: median survival time; dose: 240.0 mg/kg/injection; schedule: Q01DX005 (ip); vehicle: Klucel (hydroxypropylcellulose) (HPC); higher = longer survival
Inconclusive results and toxic doses are left out.
For each entry below, report its T/C value.

> print(dat)
                                   molecule            result
1  CCCCC1/C(=C/C(=O)c2ccccc2)Nc2ccccc2N1C(=O)c1ccccc1 (stereo not given)   90 % of control
2        COC(=O)/C(=C/c1c[nH]c2ccccc12)NC=O   92 % of control
3  COc1cc2c(cc1OC)C13CC(=O)N(C(C)=O)N1CCCN3C2=O (stereo not given)   88 % of control
4  CCCCN1C(=O)C(=C/C=C/C=C2\Oc3ccccc3N2CCCS(=O)(=O)O)C(=O)N(CCCC)C1=S  106 % of control

Provide the reported T/C of each entry below, same order.
1. COc1ccc(C2NC(=S)NC(C)=C2C(N)=O)cc1 (stereo not given)
2. O=C(O)CNC(=O)CNc1nc(Cl)nc(NCC(=O)NCC(=O)O)n1
3. Cc1cccc(NC(=O)Nc2ccc(F)cc2)n1
4. Cc1noc(NS(=O)(=O)c2ccc(NC(=O)NCCCl)cc2)c1C
5. Cc1ccc(-c2cc(=O)c3cc(C)c(C)c(C#N)c3o2)cc1

Ans:
["96 % of control", "93 % of control", "100 % of control", "97 % of control", "96 % of control"]

List the reported T/C of each molecule below.
1. Cc1cc(NCCc2ccccc2)cc(=O)n1CCc1ccccc1
2. O=C1OCC(c2ccno2)=C1O
3. c1cc2c(cc1CN1CCOCC1)Sc1cc(CN3CCOCC3)ccc1N2

Ans:
["94 % of control", "104 % of control", "92 % of control"]
